Known IC50 of a selection of compounds
- Measured target: NDM-1 (Klebsiella pneumoniae)
- Sequence (C7C422 whole entry, looked up, species assumed): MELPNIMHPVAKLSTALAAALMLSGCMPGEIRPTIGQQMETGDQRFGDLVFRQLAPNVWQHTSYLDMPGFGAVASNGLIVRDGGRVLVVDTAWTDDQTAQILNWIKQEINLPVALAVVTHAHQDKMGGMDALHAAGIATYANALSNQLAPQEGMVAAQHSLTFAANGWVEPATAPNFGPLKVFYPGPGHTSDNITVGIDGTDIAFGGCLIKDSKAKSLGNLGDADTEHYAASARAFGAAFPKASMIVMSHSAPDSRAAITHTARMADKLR
- Test method notes: biochemical
- Type: biochemical
- Measurement conditions: CCF2-FA substrate, 2 hours at 25° C; read-out: NDM-1 IC50

>  <Compound>
NS(=O)(=O)c1c(S(=O)(=O)C2CNC2)ccc(-c2ccc3cnccc3c2)c1-c1nnn[nH]1.O=C(O)C(F)(F)F [Example 116, 2,2,2-trifluoroacetate]

>  <Measured target>
NDM-1 (Klebsiella pneumoniae)

>  <IC50 [pM]>
199

$$$$
>  <Compound>
Nc1nc2cccc(-c3ccc(S(=O)(=O)[C@H]4CCNC4)c(S(N)(=O)=O)c3-c3nn[nH]n3)c2[nH]1

>  <Measured target>
NDM-1 (Klebsiella pneumoniae)

>  <IC50 [pM]>
154

$$$$
>  <Compound>
Nc1nc2c(-c3ccc(S(=O)(=O)C[C@H](N)CO)c(S(N)(=O)=O)c3-c3nn[nH]n3)cccc2[nH]1

>  <Measured target>
NDM-1 (Klebsiella pneumoniae)

>  <IC50 [pM]>
147

$$$$
>  <Compound>
Nc1ncc(-c2ccc(S(=O)(=O)C3CNC3)c(S(N)(=O)=O)c2-c2nn[nH]n2)c2cccnc12

>  <Measured target>
NDM-1 (Klebsiella pneumoniae)

>  <IC50 [pM]>
566

$$$$
>  <Compound>
COC(=O)CNC(=O)c1nc2c(-c3ccc(S(=O)(=O)C4CNC4)c(S(N)(=O)=O)c3-c3nn[nH]n3)cccc2[nH]1

>  <Measured target>
NDM-1 (Klebsiella pneumoniae)

>  <IC50 [pM]>
108

$$$$
>  <Compound>
NCCS(=O)(=O)c1ccc(-c2cccc3nc(N)[nH]c23)c(-c2nn[nH]n2)c1S(N)(=O)=O

>  <Measured target>
NDM-1 (Klebsiella pneumoniae)

>  <IC50 [pM]>
251

$$$$
>  <Compound>
NCCN1CCC(S(=O)(=O)c2ccc(-c3cccc4nc(N)[nH]c34)c(-c3nn[nH]n3)c2S(N)(=O)=O)CC1

>  <Measured target>
NDM-1 (Klebsiella pneumoniae)

>  <IC50 [pM]>
392

$$$$

* * *

- System: P. aeruginosa expressing IMP-1, efflux+ (MB9798)
- Format: cell-based, Pseudomonas aeruginosa
- Measurement conditions: ratio MITC95 PA_9798/MITC95 PA_9799
Measured Efflux ratio values are reported for all entries that follow.

>  <Compound>
Nc1ccc2ncc(-c3ccc(S(=O)(=O)C4CNC4)c(S(N)(=O)=O)c3-c3nn[nH]n3)n2n1 [Example 17]

>  <Efflux ratio>
2.00

$$$$
>  <Compound>
Nc1nc2ccc(-c3ccc(S(=O)(=O)C4CNC4)c(S(N)(=O)=O)c3-c3nn[nH]n3)cn2n1 [Example 215]

>  <Efflux ratio>
2.00

$$$$
>  <Compound>
CCOC(=O)Nc1nc2c(-c3ccc(S(=O)(=O)CCN)c(S(N)(=O)=O)c3-c3nn[nH]n3)cccc2s1 [Example 84]

>  <Efflux ratio>
4.00

$$$$
>  <Compound>
Nc1c(NCCO)cccc1-c1ccc(S(=O)(=O)C2CNC2)c(S(N)(=O)=O)c1-c1nn[nH]n1 [Example 374]

>  <Efflux ratio>
2.00

$$$$
>  <Compound>
Nc1nc2cc(-c3ccc(S(=O)(=O)C4CNC4)c(S(N)(=O)=O)c3-c3nn[nH]n3)ccc2[nH]1 [Example 40]

>  <Efflux ratio>
5.61

$$$$
>  <Compound>
NCCS(=O)(=O)c1ccc(-c2cccc3[nH]cnc23)c(-c2nn[nH]n2)c1S(N)(=O)=O [Example 198]

>  <Efflux ratio>
1.00

$$$$
>  <Compound>
NC(=O)N1CCC(S(=O)(=O)c2ccc(-c3cccc4nc(N)[nH]c34)c(-c3nn[nH]n3)c2S(N)(=O)=O)CC1 [Example 49]

>  <Efflux ratio>
4.00

$$$$

* * *

- System: P. aeruginosa expressing IMP-1, efflux+ (MB9798)
- Assay type: cell-based, Pseudomonas aeruginosa
- Measurement conditions: ratio MITC95 PA_9798/MITC95 PA_9799
Rule: Efflux ratio below 2 gives 1.0. Equal to or above 2 gives 0.0.

>  <Molecule>
NCCS(=O)(=O)c1ccc(-c2ccnc(N)c2)c(-c2nnn[nH]2)c1S(N)(=O)=O.O=C(O)C(F)(F)F [Example 141]

>  <Label>
0.0

$$$$
>  <Molecule>
C[C@H](CN)S(=O)(=O)c1ccc(-c2cccc3c2nc(N)n3C)c(-c2nn[nH]n2)c1S(N)(=O)=O [Example 279]

>  <Label>
0.0

$$$$
>  <Molecule>
NS(=O)(=O)c1c(S(=O)(=O)C2CNC2)ccc(-c2cccn3ccnc23)c1-c1nnn[nH]1 [Example 58]

>  <Label>
1.0

$$$$
>  <Molecule>
NS(=O)(=O)c1c(SC2CNC2)ccc(-c2ccc(C3CCNCC3)cc2)c1-c1nn[nH]n1 [Example 4]

>  <Label>
0.0

$$$$
>  <Molecule>
Nc1n[nH]c2c(-c3ccc(S(=O)(=O)C4CNC4)c(S(N)(=O)=O)c3-c3nn[nH]n3)cccc12 [Example 21]

>  <Label>
1.0

$$$$
>  <Molecule>
NCCS(=O)(=O)c1ccc(-c2cccc3sc(N)nc23)c(-c2nn[nH]n2)c1S(N)(=O)=O [Example 313]

>  <Label>
1.0

$$$$
>  <Molecule>
N[C@@H](CO)CS(=O)(=O)c1ccc(-c2cccc3[nH]cnc23)c(-c2nn[nH]n2)c1S(N)(=O)=O [Example 357]

>  <Label>
1.0

$$$$
>  <Molecule>
Nc1nc2c(-c3ccc(S(=O)(=O)[C@H]4CCNC4)c(S(N)(=O)=O)c3-c3nn[nH]n3)cccc2s1 [Example 184]

>  <Label>
1.0

$$$$
>  <Molecule>
Nc1nc2c(-c3ccc(S(=O)(=O)C4CCNCC4)c(S(N)(=O)=O)c3-c3nn[nH]n3)cccc2s1 [Example 315]

>  <Label>
1.0

$$$$
>  <Molecule>
Nc1nc2cccc(-c3ccc([S+]([O-])C4CCNCC4)c(S(N)(=O)=O)c3-c3nn[nH]n3)c2[nH]1 (centres unmarked) [Example 14]

>  <Label>
0.0

$$$$
>  <Molecule>
NCCS(=O)(=O)c1ccc(-c2ccc3scnc3c2)c(-c2nnn[nH]2)c1S(N)(=O)=O.O=C(O)C(F)(F)F [Example 174]

>  <Label>
0.0

$$$$
>  <Molecule>
CCn1c(N)nc2c(-c3ccc(S(=O)(=O)C4CNC4)c(S(N)(=O)=O)c3-c3nn[nH]n3)cccc21 [Example 283]

>  <Label>
0.0

$$$$
>  <Molecule>
Nc1ncccc1-c1cc(-c2ccc(S(=O)(=O)C3CNC3)c(S(N)(=O)=O)c2-c2nnn[nH]2)ccn1 [Example 310]

>  <Label>
0.0

$$$$
>  <Molecule>
Nc1nc2cccc(-c3ccc(S(=O)(=O)C4CCN(CCO)CC4)c(S(N)(=O)=O)c3-c3nn[nH]n3)c2[nH]1 [Example 47]

>  <Label>
0.0

$$$$
>  <Molecule>
CNC(=O)c1ccc(-c2ccc(S(=O)(=O)CCN)c(S(N)(=O)=O)c2-c2nnn[nH]2)cn1.O=C(O)C(F)(F)F [Example 139]

>  <Label>
0.0

$$$$

* * *

Listed here are compounds together with their documented pIC50.
- Measured target: IMP-1 (Serratia marcescens)
- Sequence (P52699 whole entry, looked up, species assumed): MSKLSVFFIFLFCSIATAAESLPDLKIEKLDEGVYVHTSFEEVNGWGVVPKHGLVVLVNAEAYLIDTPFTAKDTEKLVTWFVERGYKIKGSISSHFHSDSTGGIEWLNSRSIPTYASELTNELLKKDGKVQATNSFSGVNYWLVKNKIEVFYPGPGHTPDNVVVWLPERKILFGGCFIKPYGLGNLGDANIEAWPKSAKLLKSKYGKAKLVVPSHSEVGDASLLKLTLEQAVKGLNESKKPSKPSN
- Test method notes: biochemical
- Format: biochemical
pIC50: −log10 of the molar value. Counter-ions that a name gives are not always drawn.
Measurement type: pIC50

>  <Compound>
Nc1nc2c(-c3ccc(S(=O)(=O)C4CCNCC4)c(S(N)(=O)=O)c3-c3nn[nH]n3)cccc2s1

>  <Measurement type>
pIC50

>  <Value measured>
9.60

$$$$
>  <Compound>
Cn1c(N)nc2c(-c3ccc(S(=O)(=O)CCN)c(S(N)(=O)=O)c3-c3nn[nH]n3)cccc21

>  <Measurement type>
pIC50

>  <Value measured>
9.62

$$$$
>  <Compound>
Cn1cc(C(=O)C(F)(F)F)c2c(-c3ccc(S(=O)(=O)C4CNC4)c(S(N)(=O)=O)c3-c3nnn[nH]3)cccc21

>  <Measurement type>
pIC50

>  <Value measured>
8.76

$$$$
>  <Compound>
NCCS(=O)(=O)c1ccc(-c2cccc3nc(N)oc23)c(-c2nn[nH]n2)c1S(N)(=O)=O

>  <Measurement type>
pIC50

>  <Value measured>
9.00

$$$$
>  <Compound>
NCCS(=O)(=O)c1ccc(-c2cccc3oc(N)nc23)c(-c2nn[nH]n2)c1S(N)(=O)=O

>  <Measurement type>
pIC50

>  <Value measured>
9.59

$$$$
>  <Compound>
Nc1nc2c(-c3ccc(S(=O)(=O)[C@H]4CCNC4)c(S(N)(=O)=O)c3-c3nn[nH]n3)cccc2o1

>  <Measurement type>
pIC50

>  <Value measured>
9.45

$$$$
>  <Compound>
NCCS(=O)(=O)c1ccc(-c2cncc3sc(N)nc23)c(-c2nn[nH]n2)c1S(N)(=O)=O [Example 81, hydrochloride]

>  <Measurement type>
pIC50

>  <Value measured>
9.57

$$$$
>  <Compound>
Nc1nc2c(-c3ccc(S(=O)(=O)CCN4CCOCC4)c(S(N)(=O)=O)c3-c3nn[nH]n3)cccc2s1

>  <Measurement type>
pIC50

>  <Value measured>
9.33

$$$$
>  <Compound>
Nc1nc2cccc(-c3ccc(S(=O)(=O)C4CNC4)c(S(N)(=O)=O)c3-c3nn[nH]n3)c2o1

>  <Measurement type>
pIC50

>  <Value measured>
8.87

$$$$
